- Test system: HCT-15 colon
- protocol text: NCI tumour cell line growth inhibition, 48 h
measurement label: TGI

| compound | meas value |
| --- | --- |
| N#CC(C(=O)C(=O)Nc1ccccc1)c1ccccc1 (stereo not given) | > 100 µM |
| Cc1ccc(C2(c3ccc(Cl)cc3)c3ccccc3C3=NCCN32)cc1 (stereo not given) | 24 µM |
| CC(=O)/C(=C/c1ccccc1)C(=O)CC(C)C | 22.3 µM |
| COc1ccc(/C=C2/CSCC3=C2NC(=S)NC3c2ccc(OC)c(OC)c2OC)c(OC)c1OC (stereo not given) | > 100 µM |
| COc1cc2c3cc1Oc1c(OC)c(OC)cc4c1C(=NCC4)Cc1ccc(cc1)Oc1cc(ccc1O)C[C@H]3N(C)CC2 | 25.9 µM |

# credit: PubChem BioAssay (NCI)
